target-or-test-system: bovine cardiac myosin (Bos taurus)
Sequence (Q9BE39 whole entry): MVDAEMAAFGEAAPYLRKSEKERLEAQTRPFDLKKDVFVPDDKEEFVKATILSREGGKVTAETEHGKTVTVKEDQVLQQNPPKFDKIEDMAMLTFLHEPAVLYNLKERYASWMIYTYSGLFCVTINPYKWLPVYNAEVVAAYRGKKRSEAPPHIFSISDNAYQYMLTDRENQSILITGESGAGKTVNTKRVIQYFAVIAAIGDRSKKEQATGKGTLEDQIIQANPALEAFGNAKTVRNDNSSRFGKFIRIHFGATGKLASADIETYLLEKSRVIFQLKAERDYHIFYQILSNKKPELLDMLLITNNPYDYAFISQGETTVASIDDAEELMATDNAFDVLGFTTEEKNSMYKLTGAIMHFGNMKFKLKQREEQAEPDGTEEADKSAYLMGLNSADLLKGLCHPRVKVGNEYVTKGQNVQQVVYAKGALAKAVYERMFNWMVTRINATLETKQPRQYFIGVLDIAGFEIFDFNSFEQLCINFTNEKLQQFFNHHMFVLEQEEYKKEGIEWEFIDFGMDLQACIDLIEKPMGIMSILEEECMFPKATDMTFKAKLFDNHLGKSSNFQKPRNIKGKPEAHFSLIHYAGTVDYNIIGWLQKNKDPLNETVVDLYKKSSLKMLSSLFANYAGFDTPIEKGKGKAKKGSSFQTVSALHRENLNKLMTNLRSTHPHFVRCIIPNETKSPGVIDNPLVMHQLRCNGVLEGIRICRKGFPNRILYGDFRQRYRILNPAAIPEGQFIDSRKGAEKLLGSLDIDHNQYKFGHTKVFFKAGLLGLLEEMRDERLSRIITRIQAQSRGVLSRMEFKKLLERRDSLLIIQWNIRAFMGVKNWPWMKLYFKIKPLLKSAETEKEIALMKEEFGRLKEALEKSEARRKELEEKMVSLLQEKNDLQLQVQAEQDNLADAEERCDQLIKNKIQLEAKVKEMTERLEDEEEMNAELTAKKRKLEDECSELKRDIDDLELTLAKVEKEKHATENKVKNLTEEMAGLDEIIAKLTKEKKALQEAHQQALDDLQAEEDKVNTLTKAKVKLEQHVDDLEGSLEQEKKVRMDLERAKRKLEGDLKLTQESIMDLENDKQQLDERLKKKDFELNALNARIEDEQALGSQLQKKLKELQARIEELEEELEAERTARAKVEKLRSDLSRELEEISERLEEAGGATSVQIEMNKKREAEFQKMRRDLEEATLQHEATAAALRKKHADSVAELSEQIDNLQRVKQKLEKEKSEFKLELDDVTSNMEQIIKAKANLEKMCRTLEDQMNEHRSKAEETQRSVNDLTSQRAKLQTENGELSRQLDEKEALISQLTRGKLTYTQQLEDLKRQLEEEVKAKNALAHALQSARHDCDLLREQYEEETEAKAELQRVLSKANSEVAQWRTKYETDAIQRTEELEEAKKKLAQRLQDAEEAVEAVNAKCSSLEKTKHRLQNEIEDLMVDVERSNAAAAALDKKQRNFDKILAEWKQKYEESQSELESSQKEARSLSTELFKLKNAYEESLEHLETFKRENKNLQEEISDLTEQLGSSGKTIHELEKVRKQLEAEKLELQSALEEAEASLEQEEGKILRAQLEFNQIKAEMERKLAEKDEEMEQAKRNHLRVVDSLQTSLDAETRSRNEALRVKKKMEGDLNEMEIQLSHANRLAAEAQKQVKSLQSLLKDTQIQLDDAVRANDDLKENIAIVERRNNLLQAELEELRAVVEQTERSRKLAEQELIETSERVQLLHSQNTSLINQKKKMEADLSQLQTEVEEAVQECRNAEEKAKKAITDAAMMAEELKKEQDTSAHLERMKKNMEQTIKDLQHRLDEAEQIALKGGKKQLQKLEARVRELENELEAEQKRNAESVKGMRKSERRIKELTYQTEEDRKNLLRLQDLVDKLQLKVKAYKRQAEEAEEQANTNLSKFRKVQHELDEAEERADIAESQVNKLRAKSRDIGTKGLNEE
Sequence (P85100 whole entry partner): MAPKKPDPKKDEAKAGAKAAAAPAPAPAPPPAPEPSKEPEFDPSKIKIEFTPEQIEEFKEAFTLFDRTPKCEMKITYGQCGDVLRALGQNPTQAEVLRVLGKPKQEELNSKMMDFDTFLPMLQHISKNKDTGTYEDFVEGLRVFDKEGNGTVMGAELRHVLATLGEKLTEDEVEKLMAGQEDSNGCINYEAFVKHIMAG
Sequence (Q3SZE5 whole entry partner): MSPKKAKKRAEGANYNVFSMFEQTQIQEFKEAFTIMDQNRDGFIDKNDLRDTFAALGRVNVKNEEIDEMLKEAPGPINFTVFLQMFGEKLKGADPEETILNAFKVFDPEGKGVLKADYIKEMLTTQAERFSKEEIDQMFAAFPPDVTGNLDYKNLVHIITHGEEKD
assay-explanation: Myosin inhibition assay (PK/LDH-coupled ATPase, bovine cardiac myofibrils)
condition-description: calcium concentration giving 50% activation, pH 6.8, read-out: bcMF pCa_6 IC50
pIC50: −log10 of the molar value.
Record form. Attribute: pIC50. Fill in for each entry.

**Q:** So what's the measured pIC50 for this one? CCn1c(=O)[nH]c2c(c1=O)CC[C@H](c1ccc(F)c(Cl)c1)N2 [Compound 13]
**A:** 4.82 to 6.00

**Q:** So what's the measured pIC50 for this one? CC(C)n1c(=O)[nH]c2c(c1=O)CC[C@H](c1ccc(F)c(F)c1)N2 [Compound 4]
**A:** 4.82 to 6.00

**Q:** So what's the measured pIC50 for this one? CCn1c(=O)[nH]c2c(c1=O)CC[C@@H](c1ccc(F)c(F)c1)CN2 [Compound 98]
**A:** < 4.82

**Q:** So what's the measured pIC50 for this one? CC(C)n1c(=O)[nH]c2c(c1=O)CC[C@H](c1ccccc1F)N2 [Compound 69]
**A:** 4.82 to 6.00

**Q:** So what's the measured pIC50 for this one? CC(C)n1c(=O)[nH]c2c(c1=O)CC[C@](C)(c1ccc(F)c(F)c1)N2 [Compound 111]
**A:** > 6.00

All figures here come from patent US9663516B2.
